MEASURED ATTRIBUTE: MDR1-MDCK efflux ratio

Solved cases below.
- COc1ccc(=O)n(Cc2noc3c2CCCC3)n1: 0.806
- COc1ccc(C(=O)c2ccc(C)cc2)c(OC)c1: 0.46
- CC(=O)N1c2ccc(S(=O)(=O)Nc3cccc(-c4cnco4)c3)cc2CC1C (stereo not drawn): 11.5
- Cc1ccc2[nH]c(CNC(=O)c3ncoc3C)nc2c1C: 2.39
- Cc1ccc2cccc(OCC(=O)N(C)c3ccccc3)c2n1: 1.52
- O=C(Nc1nccs1)C1CCN(C(=O)CN2CCc3ccccc32)CC1: 24.4
- Cc1noc(C)c1CS(=O)(=O)C1CCCc2ccccc21 (stereo not drawn): 0.953
- CNC(=O)c1ccc(/C=C/c2nc3cc(Cl)ccc3o2)cc1: 0.598

[A] CN(C(=O)c1cc(N2CCNC2=O)ccc1F)C1CCNC1 (stereo not drawn)
[B] CCc1nc2c(C)cc(N3CCN(CC(=O)N4CC(O)C4)CC3)cn2c1N(C)c1nc(-c2ccc(F)cc2)c(C#N)s1
[C] CC(C)c1ccccc1OC(=O)NCCc1ccc2ccccc2c1
[D] O=C(Nc1ccncc1)[C@H]1CCCN(S(=O)(=O)c2ccc(Cl)cc2)C1
[E] COc1ccc2nc(C)nc(N3CC(CO)C3)c2c1
Enquiry: Arrange the 5 compounds by rising MDR1-MDCK efflux ratio, starting with the smallest. Reply with the item labels sorted in the order that was asked for.
Return: C, A, E, D, B
(C: 0.492, A: 0.835, E: 11.5, D: 20, B: 97.9)

[a] O=C(CCCc1ccc(F)cc1)N1CCN(c2ccccc2)C(=O)C1
[b] Cc1cc(NC(=O)c2cccs2)no1
Enquiry: MDR1-MDCK efflux ratio comparison. Which is larger, a or b ? Refer to your chosen entry by its label in the reply.
Return: a

* * *

MEASURED ATTRIBUTE: intrinsic clearance, human liver microsomes (mL/min/kg)

Solved cases below.
- COc1ccccc1N1CCN(CCNC(=O)c2ccc(F)cc2)CC1: 22
- COc1ccc(CCC(=O)N2CCN(C(=O)c3cc4n(n3)CCCC4)CC2)cc1: 16.3
- Cn1c(=O)n(Cc2cccc(OC(F)F)c2)c2cnccc21: 10.4
- Cc1ccc2[nH]c(CNC(=O)c3ncoc3C)nc2c1C: 13.6
- O=C(Nc1ccc(N2CCCC2)cn1)c1ccc(-c2cnco2)cc1: 27.2
- CS(=O)(=O)c1ccc(-c2cnc(NCc3ccco3)n3cnnc23)cc1: 15.7
- CC1(COc2ccc3c(c2)ncn3-c2ccc3cccc(N4CCC(N)CC4)c3n2)COC1: 57.1

[I] COc1ccc(-c2cc(C(C)(C)C)nc(-c3ncccn3)n2)cc1
[II] c1csc(Cc2nc(-c3cnccn3)no2)c1
Enquiry: intrinsic clearance, human liver microsomes comparison. Which is larger, I or II ? Refer to your chosen entry by its label in the reply.
Return: I
(I: 21.6 mL/min/kg, II: 10.8 mL/min/kg)

* * *

# CONDITION LABEL: pH 6.8
MEASURED ATTRIBUTE: aqueous solubility (µg/mL)

Solved cases below.
- C#CCNC(=O)CCc1c(C)nn(C)c1C: 60.9
- CC(C)CN(c1ncnc2c1cnn2C)C1CC1: 29.6
- Cc1cc(C(=O)N(C)Cc2ccsc2)no1: 34.1
- COCCOCc1ccc(-c2cc3onc(-c4ccccc4)c3c(=O)n2C)cc1: 14.2
- Cc1cn2nc(-c3cc(=O)n4cc(N5CCNC6(CC6)C5)ccc4n3)cc(C)c2n1: 36

[a] CCC(C)(C)c1ccc(Oc2ccc(NC(=O)CSc3cccc[n+]3[O-])cc2)cc1
[b] O[C@@H]1CO[C@H]2C[C@@H]1Nc1c(Cc3ccccc3)cccc12
[c] c1ccc2nc(N3CCC(c4nc5ccccc5[nH]4)CC3)cnc2c1
[d] Cc1cccn(Cc2cccnc2)c1=O
Enquiry: Task field, ranking: reported aqueous solubility, descending order. Reply with the item labels sorted in the order that was asked for.
Return: d, b, c, a
(d: 47 µg/mL, b: 30 µg/mL, c: 2.4 µg/mL, a: 0.45 µg/mL)

* * *

MEASURED ATTRIBUTE: intrinsic clearance, human liver microsomes (mL/min/kg)

- Cc1ccnc(N2CCC(OCC3CCCC3)CC2)n1: 108
- CC(C)CCN1CCn2c1nc1c2c(=O)n(C)c(=O)n1C: 26.3
- Cc1nc2ccc(C(=O)NCCCc3ccc(F)cc3)cc2[nH]1: 8.01
- Cc1cnn(CCNC(=O)C2(Cn3cccn3)CC2)c1: 10.2
- c1cnc2c(Oc3ncnc4sccc34)cccc2c1: 44.3

[P] CN(CCn1cnc(C#N)c1C#N)c1ccccc1
[Q] O=C(Nc1ccc2[nH]ncc2c1)[C@H]1CCCNC1
[R] O=C(NCCc1cccc2cccnc12)C1CCCCC1
Enquiry: Arrange the 3 molecules by rising intrinsic clearance, human liver microsomes, starting with the smallest. Reply with the item labels sorted in the order that was asked for.
Return: Q, P, R
(Q: 14.5 mL/min/kg, P: 52.4 mL/min/kg, R: 158 mL/min/kg)

[A] Cn1nccc1C(=O)C1CCN(C(=O)c2cccs2)CC1
[B] c1ccc(CCn2cnc3c2CCN(c2ncccn2)C3)cc1
Enquiry: Field: lower recorded intrinsic clearance, human liver microsomes (choose A or B ) Refer to your chosen entry by its label in the reply.
Return: A
(A: 12.2 mL/min/kg, B: 206 mL/min/kg)

[P] CN(C)S(=O)(=O)CCCN1CCc2ccccc2CC1
[Q] Cc1ccc(-c2ccc(=O)n(Cc3ccncc3)n2)cc1
[R] CCOc1ccc(Nc2nc(-c3c(C)nc4ccccn34)cs2)cc1
[S] Cn1c(-c2ccccc2)cnc1NCc1ccccc1
[T] CCc1ccc(-c2nccn2Cc2c(C)nn(CC)c2C)o1
Enquiry: Arrange the 5 molecules by rising intrinsic clearance, human liver microsomes, starting with the smallest. Reply with the item labels sorted in the order that was asked for.
Return: P, Q, R, T, S
(P: 15.9 mL/min/kg, Q: 41.7 mL/min/kg, R: 159 mL/min/kg, T: 246 mL/min/kg, S: 506 mL/min/kg)

[a] CCc1cc(N2CCOCC2)nc(C2CCN(C(=O)C3CC3)CC2)n1
[b] CNc1nc(N2CCCCC2)nc(N2CCCCC2)n1
Enquiry: intrinsic clearance, human liver microsomes comparison. Which is larger, a or b ? Refer to your chosen entry by its label in the reply.
Return: b

* * *

MEASURED ATTRIBUTE: intrinsic clearance, human liver microsomes (mL/min/kg)

[1] COc1cc(N2CCN(C)CC2)ccc1Nc1ncc2c(n1)N(C)c1ccccc1C(=O)N2
[2] O=C(Cc1cccc2ccccc12)NCc1nnc2n1-c1ccccc1CC2
Enquiry: intrinsic clearance, human liver microsomes comparison. Which is larger, 1 or 2 ? Refer to your chosen entry by its label in the reply.
Return: 2

[1] O=C(C1CCCN(S(=O)(=O)c2ccccc2)C1)N1CCc2ccccc2C1 (stereo not given)
[2] C=CC(=O)Nc1cccc(Oc2nc(Nc3ccc(N4CCN(C)CC4)cc3)nc3ccsc23)c1
Enquiry: Field: lower recorded intrinsic clearance, human liver microsomes (choose 1 or 2 ) Refer to your chosen entry by its label in the reply.
Return: 2

* * *

# CONDITION LABEL: pH 6.8
MEASURED ATTRIBUTE: aqueous solubility (µg/mL)

Solved cases below.
- CC(=O)N1CCC[C@H]1C(=O)Nc1cccc(OC(F)F)c1: 47
- Cc1csc(Nc2ccc(C#N)cc2)n1: 38.2
- O=C(O)c1ccc(CN2CC[C@H](c3nc4cc(Cl)ccc4o3)C2)cc1: 32.4
- Clc1cccc(-c2nnc(Cn3cnc4ccccc43)o2)c1: 27.4
- Cn1cc(-c2nc(C(=O)Nc3cccnc3-n3cncn3)cs2)cn1: 1.92
- O=C(Nc1ccc(-c2nnn[nH]2)cc1)c1cc(COc2ccc(F)cc2)on1: 16.4
- N#Cc1c(O)nc2scc(-c3ccc(-c4ccccc4O)cc3)c2c1O: 58.8
- CN(CCN(C)C1CCCC1)C(=O)c1ccc(-c2nc[nH]n2)cc1: 36.8
- CN(C)S(=O)(=O)Nc1ccc2sncc2c1: 53.6

[1] COc1ccc(CCNCc2ccc(-c3ccccc3)o2)cc1OC
[2] CCN(C(=O)CO)[C@H]1CN(/C(=N\C#N)Nc2cccc(OC(F)F)c2)N=C1c1ccc(Cl)c(Cl)c1
Enquiry: Field: lower recorded aqueous solubility (choose 1 or 2 ) Refer to your chosen entry by its label in the reply.
Return: 2

* * *

MEASURED ATTRIBUTE: intrinsic clearance, rat liver microsomes (mL/min/kg)

Solved cases below.
* CCNc1nc(-c2cccnc2)nc(C)c1C | 69.8
* Cn1nccc1C(=O)C1CCN(C(=O)c2cccs2)CC1 | 97.5
* Cc1cnccc1-c1cnc(N(C)C)nc1-c1ccco1 | 2250
* c1cnc(NCc2cccc3cnccc23)nc1 | 178
* CCOc1ccc(C(=O)Nc2cc(C(=O)OC)ccc2N2CCN(C(C)=O)CC2)cc1 | 444
* Cc1cc(C(=O)N(C)C2CCSCC2)c(=O)n(C)c1C | 56.4

[a] Cc1cccc(O[C@H]2CN(Cc3ccc(OCCCO)cc3)C[C@@H]2O)c1
[b] CCc1cc(=O)[nH]c(SCCN2CCCCC2)n1
[c] O=c1n(Cc2ccncc2)nc2n1-c1cc(Cl)ccc1C1=NCCN12
[d] COc1cccc(Cc2cnc(N)s2)c1
[e] O=S(=O)(NC[C@H]1CCCN1)c1ccc(OC(F)F)cc1
Enquiry: Task field, ranking: reported intrinsic clearance, rat liver microsomes, descending order. Reply with the item labels sorted in the order that was asked for.
Return: a, b, d, c, e
(a: 702 mL/min/kg, b: 441 mL/min/kg, d: 281 mL/min/kg, c: 143 mL/min/kg, e: 34.5 mL/min/kg)

[a] COc1cccc(NC(=O)CNc2cccc(-c3ccnc(C)n3)c2)c1
[b] Cc1ccc(C)c(NC(=O)c2cccc(-c3ncon3)c2)c1
Enquiry: Field: lower recorded intrinsic clearance, rat liver microsomes (choose a or b ) Refer to your chosen entry by its label in the reply.
Return: b
(b: 164 mL/min/kg, a: 250 mL/min/kg)
